Target: T1, RBFOX1 RRM (Homo sapiens, UniProt Q9NWB1 109-208)
T1 sequence: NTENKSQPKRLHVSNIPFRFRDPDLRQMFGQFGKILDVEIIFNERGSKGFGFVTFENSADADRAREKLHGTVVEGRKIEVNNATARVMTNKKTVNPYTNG
Experiment: EMSA; HiTS-Eq, 1 nM pool, 10 min; buffer printed only for the single-RNA assays: 10 mM Tris pH 7.5, 150 mM NaCl, 3.4 mM EDTA, 0.001% NP-40, 30 C
Details: tags: His6 N-terminal (pET28a); label: 5' 32P
Over roughly 16,000 sequences, “ka relative to ugcaugu” has its median near 0.0091; the highest 2% begin near 0.032. This excerpt belongs to a sample that is enriched for the highest values.
Answer each item with its documented binding signal.

Example entries and their recorded answers appear below.
BINDER	OBSERVATION TYPE	TEST RESULT
CUGUCGU (DNA:RNA) RNA: GGGAGACCGGAAUUCAGAUUGUCCCUGUCGUUUAAAUCCCGUCGUAGCCACCA DNA 1: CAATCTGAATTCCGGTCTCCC DNA 2: TGGTGGCTACGACGGGATT	binding signal	0.0193 KA relative to UGCAUGU
UGGGUUU (DNA:RNA) RNA: GGGAGACCGGAAUUCAGAUUGUCCUGGGUUUUUAAAUCCCGUCGUAGCCACCA DNA 1: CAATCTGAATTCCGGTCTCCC DNA 2: TGGTGGCTACGACGGGATT	binding signal	0.0379 KA relative to UGCAUGU
UGGUUUU (DNA:RNA) RNA: GGGAGACCGGAAUUCAGAUUGUCCUGGUUUUUUAAAUCCCGUCGUAGCCACCA DNA 1: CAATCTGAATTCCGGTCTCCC DNA 2: TGGTGGCTACGACGGGATT	binding signal	0.0278 KA relative to UGCAUGU
UGCUGGG (DNA:RNA) RNA: GGGAGACCGGAAUUCAGAUUGUCCUGCUGGGUUAAAUCCCGUCGUAGCCACCA DNA 1: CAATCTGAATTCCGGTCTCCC DNA 2: TGGTGGCTACGACGGGATT	binding signal	0.0153 KA relative to UGCAUGU
UGGGUUC (DNA:RNA) RNA: GGGAGACCGGAAUUCAGAUUGUCCUGGGUUCUUAAAUCCCGUCGUAGCCACCA DNA 1: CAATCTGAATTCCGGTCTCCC DNA 2: TGGTGGCTACGACGGGATT	binding signal	0.0352 KA relative to UGCAUGU
CGUGUGC (DNA:RNA) RNA: GGGAGACCGGAAUUCAGAUUGUCCCGUGUGCUUAAAUCCCGUCGUAGCCACCA DNA 1: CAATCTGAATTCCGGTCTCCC DNA 2: TGGTGGCTACGACGGGATT	binding signal	0.0146 KA relative to UGCAUGU
CUGGGUU (DNA:RNA) RNA: GGGAGACCGGAAUUCAGAUUGUCCCUGGGUUUUAAAUCCCGUCGUAGCCACCA DNA 1: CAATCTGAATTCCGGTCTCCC DNA 2: TGGTGGCTACGACGGGATT	binding signal	0.0262 KA relative to UGCAUGU
CGUUCUG (DNA:RNA) RNA: GGGAGACCGGAAUUCAGAUUGUCCCGUUCUGUUAAAUCCCGUCGUAGCCACCA DNA 1: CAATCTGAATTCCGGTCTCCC DNA 2: TGGTGGCTACGACGGGATT	binding signal	0.0207 KA relative to UGCAUGU
CGUUUGC (DNA:RNA) RNA: GGGAGACCGGAAUUCAGAUUGUCCCGUUUGCUUAAAUCCCGUCGUAGCCACCA DNA 1: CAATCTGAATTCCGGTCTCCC DNA 2: TGGTGGCTACGACGGGATT	binding signal	0.019 KA relative to UGCAUGU
AACCAAC (DNA:RNA) RNA: GGGAGACCGGAAUUCAGAUUGUCCAACCAACUUAAAUCCCGUCGUAGCCACCA DNA 1: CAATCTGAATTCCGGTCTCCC DNA 2: TGGTGGCTACGACGGGATT	binding signal	0.000641 KA relative to UGCAUGU

Would you mind listing binding signal for each of the following binders?
1. CCUGUGC (DNA:RNA) RNA: GGGAGACCGGAAUUCAGAUUGUCCCCUGUGCUUAAAUCCCGUCGUAGCCACCA DNA 1: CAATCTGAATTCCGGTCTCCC DNA 2: TGGTGGCTACGACGGGATT
2. UGUCGUC (DNA:RNA) RNA: GGGAGACCGGAAUUCAGAUUGUCCUGUCGUCUUAAAUCCCGUCGUAGCCACCA DNA 1: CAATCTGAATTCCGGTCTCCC DNA 2: TGGTGGCTACGACGGGATT
3. UCCUGGG (DNA:RNA) RNA: GGGAGACCGGAAUUCAGAUUGUCCUCCUGGGUUAAAUCCCGUCGUAGCCACCA DNA 1: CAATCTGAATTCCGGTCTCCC DNA 2: TGGTGGCTACGACGGGATT
4. CCCCUGG (DNA:RNA) RNA: GGGAGACCGGAAUUCAGAUUGUCCCCCCUGGUUAAAUCCCGUCGUAGCCACCA DNA 1: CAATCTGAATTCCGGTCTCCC DNA 2: TGGTGGCTACGACGGGATT
5. CUGGUUC (DNA:RNA) RNA: GGGAGACCGGAAUUCAGAUUGUCCCUGGUUCUUAAAUCCCGUCGUAGCCACCA DNA 1: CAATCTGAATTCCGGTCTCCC DNA 2: TGGTGGCTACGACGGGATT
6. UGUUUUG (DNA:RNA) RNA: GGGAGACCGGAAUUCAGAUUGUCCUGUUUUGUUAAAUCCCGUCGUAGCCACCA DNA 1: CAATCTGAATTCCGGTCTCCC DNA 2: TGGTGGCTACGACGGGATT
7. CUGUUGU (DNA:RNA) RNA: GGGAGACCGGAAUUCAGAUUGUCCCUGUUGUUUAAAUCCCGUCGUAGCCACCA DNA 1: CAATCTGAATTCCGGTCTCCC DNA 2: TGGTGGCTACGACGGGATT

*A*
1: 0.0232 KA relative to UGCAUGU; 2: 0.0214 KA relative to UGCAUGU; 3: 0.00619 KA relative to UGCAUGU; 4: 0.0109 KA relative to UGCAUGU; 5: 0.0321 KA relative to UGCAUGU; 6: 0.0286 KA relative to UGCAUGU; 7: 0.0226 KA relative to UGCAUGU
